Data provenance is paper PMC4244684.

# experimental_target: Su(dx) WW3 domain (Drosophila, UniProt Q9Y0H4 471-514)
# Sequence (Q9Y0H4 471-514): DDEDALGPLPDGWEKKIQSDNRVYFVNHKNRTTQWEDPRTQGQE
# experimental_protocol: ITC
recorded_endpoint: Kd (µM)
Quick note: give the figure in µM, leave out the unit.

Entry AKQPPSYEDCIK [Notch PY motif peptide N1] ; Kd = 208

Entry GPPPPPYPG [WBP1 peptide] ; Kd = 114
